meta.source: patent US20160193316A1

Biological target: DRB1*1302 (DR6w19) (Homo sapiens, UniProt P01903+P01911, A100E/A169T/K41T/L162R/M171V/P40S/Q125H/Q178H/Q39Y/Q99D/R42S/S66N/T262R/V115G/W38E/Y61H)
Construct: endogenous in cells; host or cells: H0301
Sequence (P01903 26-254, other chains not shown): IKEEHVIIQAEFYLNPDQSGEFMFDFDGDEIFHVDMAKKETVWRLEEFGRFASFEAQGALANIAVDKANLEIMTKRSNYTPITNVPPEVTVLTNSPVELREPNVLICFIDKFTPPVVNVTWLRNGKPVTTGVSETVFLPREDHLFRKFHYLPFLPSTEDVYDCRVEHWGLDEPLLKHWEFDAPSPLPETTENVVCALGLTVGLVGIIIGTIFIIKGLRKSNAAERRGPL
Assay: HLA class II peptide binding assay
No end group written: not given here.
assay-readout: IC50

Q: I am curious: what IC50 value has been reported for PDSIQDSLKESRKLN [Peptide 35.0171] ?
A: > 20 µM

###

Biological target: HLA-B*0702 (Homo sapiens)
Construct: endogenous in cells; host or cells: GM3107
Test: HLA class I peptide binding assay
Conditions: Malaria B07 super motif peptides; binding value, no unit
Give B*0702 (binding information) for every item shown.
Answers are plain numbers.

Please report B*0702 (binding information) for every entry that follows.
1. MPNDPNRNV
2. IPEDSEKEV
3. DPNRNVDBIA (EQPQGDDNNL)
4. TPYAGEPAPF
5. GPFMKAVCV

A:
1: 0.0001; 2: 0.0001; 3: 0.0002; 4: 0.0990; 5: 0.0023

Please report B*0702 (binding information) for every entry that follows.
1. HPSDGKCNLY
2. VPGAAIPYA

A:
0.0001
0.0001

###

Give DR7 binding information for every item shown.
Target: DRB1*0701 (DR7) (Homo sapiens, UniProt P01903+P01911, A100R/A102G/A103Q/D57E/D86V/E43K/F76Y/K127E/L162R/M171V/P40G/Q125H/Q99D/R33Q/R42Y/R54Q/S133A/S66F/T210M/V115G/Y107V/Y59L/Y89S)
Construct: endogenous in cells; host or cells: Pitout
Experiment: biochemical
Format: binding
Numbers only.

Example entries and their recorded answers appear below.
construct-sequence: VWDEWSPCS
DR7 binding information: -0.0003
--
construct-sequence: LYADSAWEN
DR7 binding information: -0.0014
--
construct-sequence: IVDELSEDI
DR7 binding information: -0.0003
--
construct-sequence: IQDSLKESR
DR7 binding information: -0.0014
--
construct-sequence: LLMDCSGSI
DR7 binding information: 0.0072
--
construct-sequence: INRENANQL
DR7 binding information: -0.0003

Please report DR7 binding information for every entry that follows.
1. ILTDGIPDS
2. VCNDEVDLY
3. IKNSEKDEI
4. VEVEKTASC

A:
[0.0046, -0.0003, -0.0011, 0.0073]

Q: I am curious: what DR7 binding information value has been reported for LNKEGKLIE ?
A: -0.0009

###

Target: DRB1*1101 (DR5w11) (Homo sapiens, UniProt P01903+P01911, A100R/A169T/A87E/I96F/K41T/L162R/M171V/P40S/Q125H/Q178H/Q39Y/Q99D/R42S/S66Y/T262R/V115G/W38E)
Construct: endogenous in cells; host or cells: Sweig
Sequence (P01903 26-254, other chains not shown): as above
Experiment: biochemical
Assay type: binding
Give DR5w11 binding data for every item shown.
Answers are plain numbers.

Example entries and their recorded answers appear below.
construct-sequence: IAGGLALLA
DR5w11 binding data: -0.0002
//
construct-sequence: LALFFIIFN
DR5w11 binding data: -0.0005
//
construct-sequence: WDEWSPCSV
DR5w11 binding data: -0.0002
//
construct-sequence: LTMSNVKNV
DR5w11 binding data: 0.0030
//
construct-sequence: LIFFDLFLV
DR5w11 binding data: 0.0019
//
construct-sequence: LALLACAGL
DR5w11 binding data: -0.0002
//
construct-sequence: VDLYLLMDC
DR5w11 binding data: -0.0002
//
construct-sequence: VEKTASCGV
DR5w11 binding data: -0.0002

Now for a further sequence.
Q: I am curious: what DR5w11 binding data value has been reported for VVPGAATPY ?
A: 0.0036
